Tested on: bilirubin oxidase
Format: biochemical, Penicillium janthinellum
Conditions: metal ion 1 mM or surfactant 0.05%
result-type: Effect of additive on enzyme activity (in words)

>>> val("CCCCCCCCCCCCCCCC[N+](C)(C)C.[Cl-] [CTMC, Cetyl trimethylammonium chloride]")
"accelerated considerably"
>>> val("[Cl][Hg][Cl]")
"accelerated considerably"
>>> val("[Cl][Cu][Cl]")
"inhibited"
>>> val("[Cl-].[Cl-].[Co+2]")
"inhibited"
>>> val("[Cl][Pb][Cl]")
"accelerated considerably"

* * *

Tested on: bilirubin oxidase
Type: biochemical, Penicillium janthinellum
Details: bilirubin oxidase, 10 min, 1000 µM
result-type: Relative Acty. (relative enzyme activity with additive) (%)

>>> val("O=C(O)CN(CCN(CC(=O)O)CC(=O)O)CC(=O)O")
102
>>> val("[Cl-].[Na+]")
106
>>> val("[Cl-].[Li+]")
112
>>> val("NO [Hydroxylamine]")
108
